Test system: SNB-19 CNS
Assay: NCI tumour cell line growth inhibition, 48 h
Item-by-item account of GI50
Reported property: GI50

> print(dat)
                                   molecule         tgt  reported.property  observed.result
1            Nc1ccc(/C=C/c2ccc3ncccc3c2)cc1  SNB-19 CNS               GI50         > 100 µM
2     COc1cc2cc(NCc3cccc(Cl)c3)nc(C)c2cc1OC  SNB-19 CNS               GI50          2.12 µM
3  O=c1nc2n(-c3cccc(Cl)c3)c3ccc([N+](=O)[O-])cc3cc-2c(=O)[nH]1  SNB-19 CNS               GI50           7.5 µM
4            O=[N+]([O-])c1ccc(C2=NCCO2)cc1  SNB-19 CNS               GI50         > 100 µM
5  COc1cc(/C=C2\CC3C4CC=C5CC(OC(C)=O)CC[C@]5(C)C4CC[C@]3(C)C2=O)ccc1OCCN1CCCC1 (some centres not stated)  SNB-19 CNS               GI50          23.6 µM
6  COc1cc(/C=C/C(=O)c2cccc(-n3cc(-c4ccccc4)[nH]c3=O)c2)cc(OC)c1OC  SNB-19 CNS               GI50          2.35 µM
7  C/C(=C\C(=O)O[C@H]1[C@@H]2[C@H](C)CC[C@H]2[C@]2(C)O[C@@]1(C1CCCCC1)C[C@H]2OC(=O)CO)c1ccccc1  SNB-19 CNS               GI50          7.41 µM

* * *

Test system: CCRF-CEM leukemia
Test: NCI tumour cell line growth inhibition, 48 h
Label condition met when TGI >= 40 µM; otherwise condition not met.

> print(dat)
                                    compound     classification
 1  CC(=O)N1C=Cc2c(c(C)c3c([nH]c4ccccc43)c2C)C1      condition met
 2  N#CC1=C(N)Oc2c(sc3c(Br)cccc23)C1c1ccc([N+](=O)[O-])cc1 (stereo unspecified)  condition not met
 3  Cc1ccc(S(=O)(=O)NNC(=O)Nc2cccc(C(F)(F)F)c2)cc1      condition met
 4  Cc1c(C(Cc2ccccc2N(C)C(=O)/C=C\C(=O)O)c2c[nH]c3ccccc23)c2ccccc2n1C (stereo unspecified)  condition not met
 5  ClC1=C(Cl)C(Cl)(C2(Cl)C(Cl)=C(Cl)C(Cl)=C2Cl)C(Cl)=C1Cl  condition not met
 6  CC(C)=CCC[C@@H](C)[C@H]1CC[C@@]2(C)[C@@H]3CC[C@H]4C(C)(C)[C@@H](O)CC[C@@]45C[C@@]35CC[C@]12C      condition met
 7  O=S1OC(c2ccccc2)(c2ccccc2)C(c2ccccc2)(c2ccccc2)O1      condition met
 8       COc1cc(CN=c2nc(N(C)C)ss2)cc(OC)c1OC  condition not met
 9  COC(=O)C(Cc1ccccc1)NC(=O)CSc1nnc(COc2ccc(Cl)cc2)n1-c1ccccc1 (stereo unspecified)      condition met
10  O=C(N/N=C/c1ccc(Cl)cc1)c1ccc(NC(=O)c2ccccn2)cc1      condition met
11  COC1=C(C(c2cc(OC)c(OC)c(OC)c2)c2cc3c(cc2OC)OCO3)C(=O)OC1 (stereo unspecified)      condition met
12  N#CCCNc1nonc1-c1nc2ccccc2n1CC(=O)c1ccc(N)cc1      condition met
13  COc1cc2c(c3oc(-c4ccc(O)cc4)c(O)c(=O)c13)CCC(C)(C)O2      condition met
14        CC(C)(CN1CCCCC1)C(=O)/C=C/c1ccccc1  condition not met
15  COC(=O)c1c2c(c(C)[n+]([O-])c1C)C(=O)C(NCc1ccc(OC)cc1)=CC2=O  condition not met
16  O=P1(NCCCl)OCCCN1CCCl (stereo unspecified)      condition met
17  COCCN(C(=O)c1ccccc1)C1CCC2(SCCS2)c2[nH]c3ccccc3c21 (stereo unspecified)      condition met
18  C=CC1(C)CCC2C(=CCC3C2(C)CC(O)C(O)C3(C)COC2OC(CO)C(O)C(O)C2O)C1 (stereo unspecified)      condition met
19  C[C@@H]1C(=O)CC2C(C)(C)CCC[C@]2(C)[C@@]12CC[C@]1(C=COC1)O2 (stereo partly specified)      condition met
20                O=c1[nH]c2ccccc2n1C1CCNCC1      condition met
21  N#CC(C(=O)CCCC(=O)Nc1ccccc1[N+](=O)[O-])c1c(Cl)cccc1Cl (stereo unspecified)      condition met
22   O=C(CCCc1ccc(N(CCCl)CCCl)cc1)NCc1ccccc1  condition not met
23  COc1cc2nc(-c3cccs3)nc(Nc3cccc([N+](=O)[O-])c3)c2cc1OC      condition met
24         O=C(/C=C\c1ccc(O)c(O)c1)c1ccccc1O      condition met
